# ASSAYED SYSTEM: 4NB2.1 biosensor (Salmonella typhimurium, UniProt Q8ZR43, C134D/K63T/L66M/S137G)
# Sequence (Q8ZR43 other isoform, or with tags, fused parts or gaps K63T/L66M/C134D/S137G): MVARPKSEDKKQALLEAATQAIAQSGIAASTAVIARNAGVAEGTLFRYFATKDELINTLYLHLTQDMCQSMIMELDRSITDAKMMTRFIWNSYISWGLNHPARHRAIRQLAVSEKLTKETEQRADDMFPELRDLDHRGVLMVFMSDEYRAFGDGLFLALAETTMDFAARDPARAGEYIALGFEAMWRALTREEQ
# MEASUREMENT NOTES: Dose response of the evolved 4NB2.1 biosensor to 4NB (fluorescence, RFU/OD)
# DETAILS: biosensor developed by directed evolution
VALUE KIND: EC50 (µM)

1) COc1ccc(CNCCc2ccc(O)cc2)cc1O    20

Reference source: patent US20240336900A1
